Hey, just so you know, these numbers are from patent US20230144436A1.

Test system: DMPK
Assay Details: DMPK knockdown by transfected antisense oligonucleotides in DM1 C15 myotubes at 0.5 nM and 50 nM
Type: cell-based
Condition Notes: 50 nM oligonucleotide, 72 hours, qPCR, relative to vehicle control
Readout Type: Percent DMPK Reduction (%)
Just the number please, in %, no unit attached.

These solved cases illustrate the format of a correct answer.
IN: Percent DMPK Reduction lookup needed for 246 (GGACGGCCCGGCUUGCUGCC; chemistry not given here) [compound 246] , thanks.
OUT: 69.30

IN: Percent DMPK Reduction lookup needed for 305 (UGAUCUUCAUGGCAUACACC; chemistry not given here) [compound 305] , thanks.
OUT: 89.68

IN: Percent DMPK Reduction lookup needed for 356 (CUGCCUGCAGCAACUCCAUC; chemistry not given here) [compound 356] , thanks.
OUT: 46.69

IN: Percent DMPK Reduction lookup needed for 258 (AACUUGCUCAGCAGUGUCAG; chemistry not given here) [compound 258] , thanks.
OUT: 52.64

IN: Percent DMPK Reduction lookup needed for 328 (CUUGCCAUAGGUCUCCGCCG; chemistry not given here) [compound 328] , thanks.
OUT: 71.05

---
IN: Percent DMPK Reduction lookup needed for 313 (GGACGAUCUUGCCAUAGGUC; chemistry not given here) [compound 313] , thanks.
OUT: 48.97

IN: Percent DMPK Reduction lookup needed for 349 (UUUGCCCAUCCACGUCAGGG; chemistry not given here) [compound 349] , thanks.
OUT: 59.36

IN: Percent DMPK Reduction lookup needed for 321 (GCUCCCUCUGCCUGCAGCAA; chemistry not given here) [compound 321] , thanks.
OUT: 70.15

###

Tested on: DMPK
Assay Details: DMPK knockdown by transfected antisense oligonucleotides in DM1 C15 myotubes at 0.5 nM and 50 nM
Assay type: cell-based
Condition Notes: 0.5 nM oligonucleotide, 72 hours, qPCR, relative to vehicle control
Readout Type: Percent DMPK Reduction (%)
Just the number please, in %, no unit attached.

These solved cases illustrate the format of a correct answer.
IN: Percent DMPK Reduction lookup needed for 276 (UGUGCACGUAGCCAAGCCGG; chemistry not given here) [compound 276] , thanks.
OUT: 24.74

IN: Percent DMPK Reduction lookup needed for 329 (UACACCUGGCCCGUCUGCUU; chemistry not given here) [compound 329] , thanks.
OUT: 31.10

IN: Percent DMPK Reduction lookup needed for 322 (GCUCAGGCUCUGCCGGGUGA; chemistry not given here) [compound 322] , thanks.
OUT: 25.69

---
IN: Percent DMPK Reduction lookup needed for 252 (UCUCGGCCGGAAUCCGCUCC; chemistry not given here) [compound 252] , thanks.
OUT: 27.88

###

Test system: DMPK
Assay Details: DMPK knockdown by transfected antisense oligonucleotides in DM1 C15 myotubes at 0.5 nM and 50 nM
Format: cell-based
Condition Notes: 50 nM oligonucleotide, 72 hours
Below, each entry is listed with its recorded Percent DMPK Reduction.
Please provide the amount together with its unit, number first.

IN: Percent DMPK Reduction lookup needed for 385 (GUUGGCCGGCGUGGGCCACC; chemistry not given here) [compound 385] , thanks.
OUT: 43.57%

IN: Percent DMPK Reduction lookup needed for 396 (ACAGACAAUAAAUACCGAGG; chemistry not given here) [compound 396] , thanks.
OUT: 74.02%

IN: Percent DMPK Reduction lookup needed for 461 (CGGAGACCAUCCCAGUCGAG; chemistry not given here) [compound 461] , thanks.
OUT: 79.93%

IN: Percent DMPK Reduction lookup needed for 478 (CCAGCGGCAGAGAGAGGUGC; chemistry not given here) [compound 478] , thanks.
OUT: 84.55%

###

Tested on: DMPK
Assay Details: DMPK knockdown by transfected antisense oligonucleotides in DM1 C15 myotubes at 0.5 nM and 50 nM
Format: cell-based
Condition Notes: 50 nM oligonucleotide, 72 hours, relative to vehicle control = 1.00
Below, each entry is listed with its recorded Normalized DMPK Remaining.
Just the number.

IN: Normalized DMPK Remaining lookup needed for 470 (AUUUCAUAGGCGAAUACACC; chemistry not given here) [compound 470] , thanks.
OUT: 0.56

IN: Normalized DMPK Remaining lookup needed for 407 (CCAAACUUGCTCAGCAGUGU; chemistry not given here) [compound 407] , thanks.
OUT: 0.42

IN: Normalized DMPK Remaining lookup needed for 380 (UGCCCAUAGAACAUUUCAUA; chemistry not given here) [compound 380] , thanks.
OUT: 0.65

IN: Normalized DMPK Remaining lookup needed for 393 (UUGGCCGGCGUGGGCCACCA; chemistry not given here) [compound 393] , thanks.
OUT: 0.56

IN: Normalized DMPK Remaining lookup needed for 444 (GCGUCACCUCGGCCUCAGCC; chemistry not given here) [compound 444] , thanks.
OUT: 0.19

IN: Normalized DMPK Remaining lookup needed for 446 (AGCGGCAGAGAGAGGUGCUC; chemistry not given here) [compound 446] , thanks.
OUT: 0.09

IN: Normalized DMPK Remaining lookup needed for 449 (CCUCUGCCUCGCGUAGUUGA; chemistry not given here) [compound 449] , thanks.
OUT: 0.15

IN: Normalized DMPK Remaining lookup needed for 466 (GUCCAGCAGGAUGUGUCGG; chemistry not given here) [compound 466] , thanks.
OUT: 0.17

---
IN: Normalized DMPK Remaining lookup needed for 392 (UGCCUGCAGCAACUCCAUCC; chemistry not given here) [compound 392] , thanks.
OUT: 0.50

IN: Normalized DMPK Remaining lookup needed for 401 (CUCUGCCGGGUGAGCACCUC; chemistry not given here) [compound 401] , thanks.
OUT: 0.26

IN: Normalized DMPK Remaining lookup needed for 420 (ACAAUCUCCGCCAGGUAGAA; chemistry not given here) [compound 420] , thanks.
OUT: 0.50

###

Below, each entry is listed with its recorded Percent DMPK Reduction.
Tested on: DMPK
Assay Details: DMPK knockdown by transfected antisense oligonucleotides in DM1 C15 myotubes at 0.5 nM and 50 nM
Type: cell-based
Condition Notes: 0.5 nM oligonucleotide, 72 hours, qPCR, relative to vehicle control
Just the number please, in %, no unit attached.

IN: Percent DMPK Reduction lookup needed for 330 (CCAGCGCCCACCAGUCACAC; chemistry not given here) [compound 330] , thanks.
OUT: 36.17

IN: Percent DMPK Reduction lookup needed for 257 (CAUGGCAUACACCUGGCCCG; chemistry not given here) [compound 257] , thanks.
OUT: 31.63

IN: Percent DMPK Reduction lookup needed for 363 (CAUGACCAGGUACAGGUAGU; chemistry not given here) [compound 363] , thanks.
OUT: 19.39

IN: Percent DMPK Reduction lookup needed for 342 (UGGCCACAGCGGUCCAGCAG; chemistry not given here) [compound 342] , thanks.
OUT: 29.59

IN: Percent DMPK Reduction lookup needed for 277 (GACCAGGUACAGGUAGUUCU; chemistry not given here) [compound 277] , thanks.
OUT: 42.85

---
IN: Percent DMPK Reduction lookup needed for 287 (GCCAUCUCGGCCGGAAUCCG; chemistry not given here) [compound 287] , thanks.
OUT: 18.56

IN: Percent DMPK Reduction lookup needed for 345 (AAGCGCCUCCGAUAGGCCAG; chemistry not given here) [compound 345] , thanks.
OUT: 8.91

IN: Percent DMPK Reduction lookup needed for 283 (GCCAAAGAAGAAGGGAUGUG; chemistry not given here) [compound 283] , thanks.
OUT: 24.87

IN: Percent DMPK Reduction lookup needed for 321 (GCUCCCUCUGCCUGCAGCAA; chemistry not given here) [compound 321] , thanks.
OUT: 26.41

###

Below, each entry is listed with its recorded Percent DMPK Reduction.
System: DMPK
Assay Details: DMPK knockdown by transfected antisense oligonucleotides in DM1 C15 myotubes at 0.5 nM and 50 nM
Assay type: cell-based
Condition Notes: 0.5 nM oligonucleotide, 72 hours
Just the number please, in %, no unit attached.

IN: Percent DMPK Reduction lookup needed for 401 (CUCUGCCGGGUGAGCACCUC; chemistry not given here) [compound 401] , thanks.
OUT: 25.25

IN: Percent DMPK Reduction lookup needed for 460 (GGUCCAGCAGGAUGUUGUCG; chemistry not given here) [compound 460] , thanks.
OUT: 31.78

IN: Percent DMPK Reduction lookup needed for 416 (GCCUCGCGUAGUUGACUGGC; chemistry not given here) [compound 416] , thanks.
OUT: 12.98

IN: Percent DMPK Reduction lookup needed for 413 (GACAGACAAUAAAUACCGAG; chemistry not given here) [compound 413] , thanks.
OUT: 18.26

IN: Percent DMPK Reduction lookup needed for 419 (UGCGGAUGGCCUCCAUCUCC; chemistry not given here) [compound 419] , thanks.
OUT: 40.15

IN: Percent DMPK Reduction lookup needed for 453 (CAGCAGGAUGUUGUCGGGUU; chemistry not given here) [compound 453] , thanks.
OUT: 34.18

IN: Percent DMPK Reduction lookup needed for 446 (AGCGGCAGAGAGAGGUGCUC; chemistry not given here) [compound 446] , thanks.
OUT: 19.75

IN: Percent DMPK Reduction lookup needed for 385 (GUUGGCCGGCGUGGGCCACC; chemistry not given here) [compound 385] , thanks.
OUT: -1.82

IN: Percent DMPK Reduction lookup needed for 379 (CAGGUAGUUCUCAUCCUGGA; chemistry not given here) [compound 379] , thanks.
OUT: 25.92

IN: Percent DMPK Reduction lookup needed for 442 (AUGUUGUCGGGUUUGAUGUC; chemistry not given here) [compound 442] , thanks.
OUT: 16.93

IN: Percent DMPK Reduction lookup needed for 459 (GCUUGCUGCCUUCCCAGGCC; chemistry not given here) [compound 459] , thanks.
OUT: 1.14

IN: Percent DMPK Reduction lookup needed for 414 (UAGAACAUUUCAUAGGCGAA; chemistry not given here) [compound 414] , thanks.
OUT: 20.23

IN: Percent DMPK Reduction lookup needed for 468 (CGAGAGCAGCGCAAGUGAGG; chemistry not given here) [compound 468] , thanks.
OUT: -2.19

IN: Percent DMPK Reduction lookup needed for 481 (GGGAAAGCGCCUCCGAUAGG; chemistry not given here) [compound 481] , thanks.
OUT: 10.02
